measurement.protocol: Human trial: blood serum levels of quercetin after ingestion, HPLC-UV
Type: in vivo
experimental.context: human subject, 80 mg quercetin oral, time 135 min
parameter.measured: concentration at 135 min (ng/mL)
Express the result in ng/mL but write the number alone.

// concentration at 135 min lookup, compound = O=c1c(O)c(-c2ccc(O)c(O)c2)oc2cc(O)cc(O)c12 [Quercetin] , result: 0

====

measurement.protocol: Human trial: blood serum levels of quercetin after ingestion, HPLC-UV
Format: in vivo
experimental.context: human subject, 80 mg quercetin oral, time 60 min
parameter.measured: concentration at 60 min
Just the number plus its unit, please.

Reported concentration at 60 min of O=c1c(O)c(-c2ccc(O)c(O)c2)oc2cc(O)cc(O)c12 : 3.1 ng/mL
